Cited source: patent US20010049372A1

Assay: Cellular toxicity by [3H]-thymidine uptake
Format: cell-based
Conditions: human, DU-145 cells, Table 4, read-out: CC50 (μM) [^3H-]TTP incorporation in: U-145
REPORTED ENDPOINT: CC50 at 72 h (µM)

compound="Nc1nc(NC2CCC2)c2ncn([C@H]3CO[C@@H](CO)O3)c2n1 [Cmpd B (−)]" reported_endpoint="CC50 at 72 h" reported_result=200
compound="Nc1ccn([C@H]2CC[C@@H](CO)O2)c(=O)n1 [Zalcitabine, zalcitabine]" reported_endpoint="CC50 at 72 h" reported_result=5

---

Experiment: Pharmacokinetic study in male and female rats (single dose iv or po)
Format: in vivo, rat
Details: plasma; female rat, po 20 mg/kg; read-out: Tmax (converted)
REPORTED ENDPOINT: Tmax (min)

compound="Nc1nc(NC2CC2)c2ncn([C@H]3CO[C@@H](CO)O3)c2n1 [Compound A (-)]" reported_endpoint=Tmax reported_result=22.8

---

Collected EC50 values appear next to each entry.
Test system: M184V
Test: Recombinant drug resistant HIV-1 variants (RT activity)
Type: cell-based
Conditions: Human immunodeficiency virus 1
Method: ANTIVIRAL ASSAYS. The anti-HIV-1 activity of the compound A (−) were assessed by employing HIV-1IIIB in a variety of cell types as previously described (Gu et al., 1992, 1994, 1999; Rando et al., 1995; Salomon et al., 1994). Briefly, cells were incubated with virus at a multiplicity of infection (MOI) of 0.005 for T cell assays and an MOI of 0.5 for monocytic cell assays for 3 hrs. […] The anti-HIV-1 efficacy was determined by testing for HIV-1 RT activity or p24 level in the cell culture supernatants. […]
REPORTED ENDPOINT: EC50 (nM)

molecule=Cc1cn([C@H]2C[C@H](N=[N+]=[N-])[C@@H](CO)O2)c(=O)[nH]c1=O tgt=M184V relation_sign== reported_result=20
molecule="Nc1nc(NC2CC2)c2ncn([C@H]3CO[C@@H](CO)O3)c2n1 [Compound A (-)]" tgt=M184V relation_sign== reported_result=530
molecule=Nc1ccn([C@@H]2CS[C@H](CO)O2)c(=O)n1 tgt=M184V relation_sign=> reported_result=40000

---

half-life: recorded values
Experiment: Preliminary pharmacokinetic study in male adult rats
Type: in vivo
Settings: male, plasma; rat, iv 5 mg/kg
REPORTED ENDPOINT: half-life (min)

molecule="Nc1nc(NC2CCC2)c2ncn([C@H]3CO[C@@H](CO)O3)c2n1 [Cmpd B (−)]" reported_endpoint=half-life reported_result=18.6
molecule="Nc1nc(NC2CC2)c2ncn([C@H]3CO[C@@H](CO)O3)c2n1 [Compound A (-)]" reported_endpoint=half-life reported_result=22.2

---

Tested on: DU-145
Assay: Cellular toxicity by [3H]-thymidine uptake
Assay type: cell-based
Conditions: Table 14; 72 hrs; read-out: CC50 (μM) [^3H]TTP incorporation in: U145
REPORTED ENDPOINT: CC50

molecular_string=Cc1cn([C@H]2C[C@H](N=[N+]=[N-])[C@@H](CO)O2)c(=O)[nH]c1=O reported_result="> 10 µM"

---

Tested on: HepG-2
Assay: Cellular toxicity by [3H]-thymidine uptake
Type: cell-based
Conditions: Table 4; 72 hrs; read-out: CC50 (μM) [^3H-]TTP incorporation in: HepG2
REPORTED ENDPOINT: CC50

molecule="Nc1nc(N)c2ncn([C@H]3CO[C@@H](CO)O3)c2n1 [DAPD, (−)-β-D -2,6-diaminopurine dioxolane]" reported_endpoint=CC50 reported_result="≥ 500 µM"

---

Test: Pharmacokinetic study in male and female rats (single dose iv or po)
Assay type: in vivo, rat
Conditions: parameters of DAPD & DXG after administration of DAPD; female rat, iv 10 mg/kg
REPORTED ENDPOINT: T1/2

compound="Nc1nc(N)c2ncn([C@H]3CO[C@@H](CO)O3)c2n1 [DAPD, (−)-β-D -2,6-diaminopurine dioxolane]" reported_result="31.5 min"

---

Tested on: CCR15 (Lamivudine^R)
Assay: Drug-resistant clinical isolates in PBMCs (p24)
Assay type: cell-based, HIV-1
Conditions: Human immunodeficiency virus 1, PBMC
REPORTED ENDPOINT: log10 IC50 (log10 of the value in nM)

compound="Cc1cn([C@H]2C=C[C@@H](CO)O2)c(=O)[nH]c1=O [Stavudine, stavudine]" tgt="CCR15 (Lamivudine^R)" reported_result=1.78
compound="Nc1nc(NC2CC2)c2ncn([C@H]3C=C[C@@H](CO)C3)c2n1 [Abacavir, abacavir]" tgt="CCR15 (Lamivudine^R)" reported_result=2.34
compound="Nc1ccn([C@@H]2CS[C@H](CO)O2)c(=O)n1 [Lamivudine, lamivudine]" tgt="CCR15 (Lamivudine^R)" reported_result=4.98
compound="Cc1cn([C@H]2C[C@H](N=[N+]=[N-])[C@@H](CO)O2)c(=O)[nH]c1=O [Zidovudine, zidovudine]" tgt="CCR15 (Lamivudine^R)" reported_result=0.48
compound="Nc1nc(NC2CC2)c2ncn([C@H]3CO[C@@H](CO)O3)c2n1 [Compound A (-)]" tgt="CCR15 (Lamivudine^R)" reported_result=2.48
compound="Nc1ncnc2c1ncn2CCOCP(=O)(O)O [Adefovir, adefovir]" tgt="CCR15 (Lamivudine^R)" reported_result=2.90

---

Assay: Pharmacokinetic study in male and female rats (single dose iv or po)
Assay type: in vivo, rat
Details: plasma; male rat, po 20 mg/kg; read-out: Cmax
REPORTED ENDPOINT: Cmax (ng/mL)

molecule="Nc1nc(NC2CC2)c2ncn([C@H]3CO[C@@H](CO)O3)c2n1 [Compound A (-)]" reported_result=4600

---

Test: Cellular toxicity by [3H]-thymidine uptake
Type: cell-based
Conditions: human, HT1080 cells, Table 14, read-out: CC50 (μM) [^3H]TTP incorporation in: HT800
REPORTED ENDPOINT: CC50 at 72 h

compound="Nc1nc(NC2CC2)c2ncn([C@H]3CO[C@@H](CO)O3)c2n1 [Compound A (-)]" reported_endpoint="CC50 at 72 h" reported_result="> 500 µM"
compound=Nc1ccn([C@H]2CC[C@@H](CO)O2)c(=O)n1 reported_endpoint="CC50 at 72 h" reported_result="2.5 µM"

---

Experiment: Cellular toxicity by [3H]-thymidine uptake
Assay type: cell-based
Conditions: human, HepG2 cells, Table 14, read-out: CC50 (μM) [^3H]TTP incorporation in: HepG2
REPORTED ENDPOINT: CC50 at 72 h

compound="Nc1nc(NC2CC2)c2ncn([C@H]3CO[C@@H](CO)O3)c2n1 [Compound A (-)]" reported_result="> 500 µM"
compound=Nc1ccn([C@H]2CC[C@@H](CO)O2)c(=O)n1 reported_result="6.5 µM"

---

Test system: 105/A (wt)
Assay: Drug-resistant clinical isolates in PBMCs (p24)
Assay type: cell-based, HIV-1
Details: Human immunodeficiency virus 1, PBMC
pIC50: −log10 of the molar value.
Please mark criterion met if the recorded pIC50 is equal to or greater than 6, and criterion not met if it falls below.

compound=Nc1ncnc2c1ncn2CCOCP(=O)(O)O answer_label="criterion not met"
compound=Nc1ccn([C@@H]2CS[C@H](CO)O2)c(=O)n1 answer_label="criterion met"
compound=Nc1nc(NC2CC2)c2ncn([C@H]3C=C[C@@H](CO)C3)c2n1 answer_label="criterion met"
compound="Nc1nc(NC2CC2)c2ncn([C@H]3CO[C@@H](CO)O3)c2n1 [Compound A (-)]" answer_label="criterion met"
compound=Cc1cn([C@H]2C=C[C@@H](CO)O2)c(=O)[nH]c1=O answer_label="criterion met"
compound=Cc1cn([C@H]2C[C@H](N=[N+]=[N-])[C@@H](CO)O2)c(=O)[nH]c1=O answer_label="criterion met"

---

Assay: Pharmacokinetic study in male and female rats (single dose iv or po)
Format: in vivo, rat
Settings: plasma; female rat, po 20 mg/kg
REPORTED ENDPOINT: bioavailability

compound="Nc1nc(NC2CC2)c2ncn([C@H]3CO[C@@H](CO)O3)c2n1 [Compound A (-)]" reported_result=92%

---

Assay: Cellular toxicity by [3H]-thymidine uptake
Type: cell-based
Conditions: human, Table 14, read-out: CC50 (μM) [^3H]TTP incorporation in: U145
REPORTED ENDPOINT: CC50 at 72 h

molecular_string=Nc1ccn([C@@H]2CS[C@H](CO)O2)c(=O)n1 reported_result="> 500 µM"

---

Assay: Preliminary pharmacokinetic study in male adult rats
Format: in vivo
Settings: male, plasma; rat, iv 5 mg/kg; read-out: AUC
REPORTED ENDPOINT: AUC

compound="Nc1nc(NC2CC2)c2ncn([C@H]3CO[C@@H](CO)O3)c2n1 [Compound A (-)]" reported_result="4740 ng·h/mL"
compound="Nc1nc(NC2CCC2)c2ncn([C@H]3CO[C@@H](CO)O3)c2n1 [Cmpd B (−)]" reported_result="5600 ng·h/mL"
